Recorded values, source PubChem BioAssay (NCI).

# Test system: MALME-3M melanoma
# PROTOCOL SUMMARY: NCI-60 one-dose screen, 48 h
# CONDITION PARAMETERS: 10 µM unless noted
The panel holds about 83,000 compounds, 20% with a hit somewhere; the sample as a whole holds those more often. The source made the active and inactive calls. Rule for the calls: active = growth percent below 10; inactive = the rest.
Outcome codes: YES for active, NO for inactive

INSERT INTO measurements (molecule, assigned_label) VALUES
  ('COC(=O)C1CCCN(S(=O)(=O)/N=C2\NC(=O)NC2=C(Cl)Cl)C1 (stereo not given)', 'NO'),
  ('N#Cc1ccc(C(=O)CSc2nc(Nc3ccc(S(N)(=O)=O)cc3)c3ccccc3n2)cc1', 'NO'),
  ('c1ccc(CNc2ncnc3ccc(-c4cnc5[nH]ncc5c4)cc23)cc1', 'NO'),
  ('O=C(N/N=C/c1ccc([N+](=O)[O-])s1)c1[nH]c2ccc(Br)cc2c1-c1ccccc1', 'NO'),
  ('OC1CCN(CCCOc2c3ccccc3nc3c2oc2ccccc23)CC1', 'YES'),
  ('CN(C)CCCOc1c2ccc(Cl)cc2nc2c1oc1ccc(Cl)cc12', 'YES'),
  ('O=C(N/N=C/c1ccc(Cl)s1)c1[nH]c2ccc(Br)cc2c1-c1ccccc1', 'NO'),
  ('Nc1cc(-c2c[nH]c3ccc(F)cc23)nc2cc(-c3c[nH]c4ccc(F)cc34)nn12', 'NO'),
  ('Nc1c(C(=O)Nc2ccc(Cl)cc2)sc2nc(-c3cnccn3)cc(-c3cccs3)c12', 'NO'),
  ('COc1cccc(N2CCN(c3ncnc4c3[nH]c3ccc(F)cc34)C[C@@H]2C)c1', 'YES'),
  ('O=C(N/N=C/c1ccco1)c1[nH]c2ccc(Br)cc2c1-c1ccccc1', 'NO'),
  ('COc1cccc(-c2nn(-c3ccccc3)cc2-c2ccnc(N3CCN(C(=O)Nc4ccc(F)cc4)CC3)c2)c1', 'NO'),
  ('N#Cc1c(-c2ccc(Cl)cc2)nc(SCc2ccc(F)cc2)nc1N1CCNCC1', 'NO'),
  ('Cc1[nH]nc2ncc(C#Cc3cncc(C(=O)Nc4ccc(CN5CCN(C)CC5)c(C(F)(F)F)c4)c3)cc12', 'YES'),
  ('COc1cc2nc(-c3ccc(C)cc3)cc(OCCCNCC3CCCO3)c2cc1OC (stereo not given)', 'NO');

----------
# System: HCC-2998 colon
# PROTOCOL SUMMARY: NCI-60 one-dose screen, 48 h
# CONDITION PARAMETERS: 10 µM unless noted
This is part of a sample that, as a whole, favours compounds with a hit. Of some 83,000 tested, about 20% had one in any assay. Activity calls are given as the source filed them. Rule for the calls: active = growth percent below 10; inactive = the rest.
Labels: y (active), n (inactive)

INSERT INTO results (molecule, assigned_label) VALUES
  ('Cn1ccnc1C(=O)/C=C/c1ccc(NC(=O)Nc2ccccc2)cc1', 'y'),
  ('CN1C(=O)N(c2ccccc2)C2N=C(N/N=C/c3ccccc3)SC21 (configuration not stated)', 'n'),
  ('COc1cc(N=Cc2sc(Nc3nccs3)nc2O)cc(OC)c1OC', 'n'),
  ('COc1ccc(-c2cc(C(=O)N=Nc3c(O)[nH]c4ccccc34)c3ccccc3n2)cc1OC', 'n'),
  ('COc1ccc(-c2nc3ccc(-c4nnc(SCC(=O)Nc5ccc(C(=O)/C=C/c6ccccc6)cc5)o4)cc3[nH]2)cc1OC', 'n'),
  ('COC1CCN(Cc2ccc3c(NNC(=O)c4cnccn4)nc4cc(F)ccc4n23)C1 (configuration not stated)', 'n'),
  ('Nc1nc(N)c2c(n1)NC(c1ccc(F)cc1)CC(c1ccc(Nc3nc(NCCO)nc(Nc4ccc(Cl)cc4)n3)cc1)=N2 (configuration not stated)', 'y'),
  ('N#Cc1ccc(C(=O)CSc2nc(Nc3ccc(S(N)(=O)=O)cc3)c3ccccc3n2)cc1', 'n'),
  ('N#Cc1c(-c2ccc(F)cc2)nc2c(C#N)c(Nc3ccccc3)nn2c1N', 'n'),
  ('COC(=O)C1CN(S(=O)(=O)/N=C2\NC(=O)NC2=C(Cl)Cl)C1', 'n'),
  ('Cc1cc(C(NC(=O)CCCCCNc2cccc3c2C(=O)N(C2CCC(=O)NC2=O)C3=O)c2cccnc2)c(O)c2ncccc12 (configuration not stated)', 'y'),
  ('Cc1ccc2ccc3ccc(C)nc3c2n1.Cc1ccc2ccc3ccc(C)nc3c2n1.Oc1c(Cl)cc(Cl)c2ccc(CN3CCCCC3)nc12.[Ru]', 'y'),
  ('CN1CCN(Cc2ccc(NC(=O)c3cncc(C#Cc4cnc5ccc(N6CCSCC6)nn45)c3)cc2C(F)(F)F)CC1', 'y'),
  ('COc1cc(/C=C/C(=O)c2ccc(C)cc2)ccc1Oc1nc(NCCO)nc(N2CCOCC2)n1', 'n'),
  ('CCCC(=O)NC(c1ccc(N(CC)CC)cc1)c1cc(C)c2cccnc2c1O (configuration not stated)', 'n'),
  ('CN(C)CCCNc1c2ccccc2nc2c1oc1ccc(Cl)cc12', 'y'),
  ('Cc1nc(-c2cc3ccccc3oc2=O)ccc1C(=O)/C=C/c1ccccn1', 'n');

----------
# Test system: DU-145 prostate
# PROTOCOL SUMMARY: NCI-60 one-dose screen, 48 h
# CONDITION PARAMETERS: 10 µM unless noted
# Protocol: Cells are grown in 96 well plates and exposed to the test compound for 48 hours. Compounds are tested at a single concentration, which is 10^-5 M for most compounds. The reported endpoint is percent growth (GI% or GIPRCNT), where numbers from 0 - 100% represent growth inhibition, and numbers from -100% - 0 represent cell death. For example, a value of 40 represents 60% growth inhibition. A value of 0 means no net growth occurred over the course of the experiment. […]
Compounds without any hit were thinned out: in the full panel of roughly 83,000, 20% have a hit. Activity calls are given as the source filed them. The calls were made as follows: active = growth percent below 10; inactive = the rest.
Possible outcomes: t for active, f for inactive

INSERT INTO results (molecule, assigned_label) VALUES
  ('O=C(CCN1C(=O)/C(=C/c2ccccc2)SC1=S)N1CCOCC1', 'f'),
  ('O=C(CSc1nc2sc3c(c2c(=O)n1-c1ccc(Cl)cc1)CCCC3)N/N=C/c1ccc(F)cc1', 'f'),
  ('N#Cc1nc(-c2ccccc2)oc1S(=O)(=O)N1CCCCC1', 'f'),
  ('Fc1ccc(-c2cc3nc(C(Cl)Cl)nc(-c4ccc(Cl)cc4)n3n2)cc1', 't'),
  ('Clc1ccc2oc3c(NCCCn4ccnc4)c4ccccc4nc3c2c1', 'f'),
  ('CCCC(=O)NC(c1ccc2c(c1)OC(F)(F)O2)c1cc(C)c2cccnc2c1O (configuration not stated)', 'f'),
  ('Nc1nc(N)c2c(n1)NC(c1ccc(F)cc1)CC(c1ccc(Nc3nc(NCCO)nc(Nc4ccc(Cl)cc4)n3)cc1)=N2 (configuration not stated)', 'f'),
  ('Cc1cc(=O)oc2cc(OCCCOc3ccc(/C=C/C(=O)Nc4ccc(Cl)cc4)cc3)ccc12', 'f'),
  ('c1ccc2c(NCCCN3CCOCC3)c3oc4ccccc4c3nc2c1', 't'),
  ('Clc1ccc2c(OCCCN3CCOCC3)c3oc4ccccc4c3nc2c1', 'f'),
  ('COc1ccc(NC2=CC(=O)C(C)=C(C)C2=O)cc1', 'f'),
  ('Oc1c(Cl)cc(Cl)c2ccc(CN3CCCCC3)nc12', 'f'),
  ('CCCC(=O)NC(c1cccnc1)c1cc(C)c2cccnc2c1O (configuration not stated)', 'f'),
  ('CCOC(=O)c1c(Nc2ccccc2)nn2c(N)c(C#N)c(-c3ccc(F)cc3)nc12', 'f'),
  ('O=C(N/N=C/c1cccs1)c1[nH]c2ccc(Br)cc2c1-c1ccccc1', 'f'),
  ('O=C(CCCN1C(=O)/C(=C/c2ccccc2F)SC1=S)N1CCOCC1', 'f'),
  ('COC(=O)C(Cc1ccccc1)NS(=O)(=O)/N=C1\NC(=O)NC1=C(Cl)Cl (configuration not stated)', 'f');

----------
# Test system: HCT-15 colon
# PROTOCOL SUMMARY: NCI-60 one-dose screen, 48 h (100 = growth as untreated, 0 = no growth, -100 = all killed)
# CONDITION PARAMETERS: 10 µM unless noted
# Protocol: Growth inhibition of the HCT-15 human tumor cell line is measured as a screen for anti-cancer activity. Cells are grown in 96 well plates and exposed to the test compound for 48 hours. Compounds are tested at a single concentration, which is 10^-5 M for most compounds. The reported endpoint is percent growth (GI% or GIPRCNT), where numbers from 0 - 100% represent growth inhibition, and numbers from -100% - 0 represent cell death. For example, a value of 40 represents 60% growth inhibition. […]
This is part of a sample that, as a whole, favours compounds with a hit. Of some 83,000 tested, about 20% had one in any assay.
OBSERVATION TYPE: growth (%)

INSERT INTO assay_data (molecule_smiles, unit_info, observed_value) VALUES
  ('CS(=O)(=O)c1ccc(-n2cc(/C=C/C(=O)c3ccc(NC(=O)CO[N+](=O)[O-])cc3)c(-c3ccc(Cl)cc3)n2)cc1', '%', 96.2),
  ('O=C(CSc1nc2sc3c(c2c(=O)n1-c1ccc(Cl)cc1)CCCC3)NNC(=O)Nc1cccc(C(F)(F)F)c1', '%', 12.9),
  ('Cc1cccc2sc(/N=C(\N)C(Br)Br)nc12', '%', -36.5),
  ('COc1ccc(/C=C2\SC(=Nc3cc(C)on3)NC2=O)cc1', '%', 99.3);
